Field: S/N. Provide a value for each of the substances that follow.
System: PCSK9
Assay type: binding, human
Conditions: spot phage ELISA signal-to-noise on PCSK9
Where no end group is shown, it is not given here.
Answers are plain numbers.

Consider the following illustrative entries.
Substance | Measure Name | Observed Result
GPTQSEYGMCGGIGYSGPTVCASGTTCQVLDPTTSQCLPGAS (disulfide (positions not given here)) [PCSK9 CBD 10] | S/N | 7.2
GPTQSTYGQCGGIGYSGPTVCASGTTCQVLWPALSWCLPGAS (disulfide (positions not given here)) [PCSK9 CBD 26] | S/N | 21.5
GPTQSLFGMCGGIGYSGPTVCASGTTCQVLYPTTSRCLPGAS (disulfide (positions not given here)) [PCSK9 CBD 20] | S/N | 18.0

Need S/N for each of these substances.
1. GPTQSMCGMCGGIGYSGPTVCASGTTCQVLDPHTSQCLPGAS (disulfide (positions not given here)) [PCSK9 CBD 18]
2. GPTQSVHGMCGGIGYSGPTVCASGTTCQVLDPFTSQCLPGAS (disulfide (positions not given here)) [PCSK9 CBD 24]

Result:
1. 14.0
2. 14.8

Need S/N for each of these substances.
1. GPTQSNYGQCGGIGYSGPTVCASGTTCQVLqPAMSWCLPGAS (disulfide) [PCSK9 CBD 21]
2. GPTQSNYGMCGGIGYSGPTVCASGTTCQVLYPTTSRCLPGAS (disulfide (positions not given here)) [PCSK9 CBD 1]

Result:
18.7
17.7

Cited source for all entries: paper PMC10977697
